Molecular target: NS3 (nonstructural protein 3, protease-helicase) (Hepatitis C virus genotype 1b (con1b), UniProt Q9WMX2 1027-1657)
Sequence (Q9WMX2 1027-1657): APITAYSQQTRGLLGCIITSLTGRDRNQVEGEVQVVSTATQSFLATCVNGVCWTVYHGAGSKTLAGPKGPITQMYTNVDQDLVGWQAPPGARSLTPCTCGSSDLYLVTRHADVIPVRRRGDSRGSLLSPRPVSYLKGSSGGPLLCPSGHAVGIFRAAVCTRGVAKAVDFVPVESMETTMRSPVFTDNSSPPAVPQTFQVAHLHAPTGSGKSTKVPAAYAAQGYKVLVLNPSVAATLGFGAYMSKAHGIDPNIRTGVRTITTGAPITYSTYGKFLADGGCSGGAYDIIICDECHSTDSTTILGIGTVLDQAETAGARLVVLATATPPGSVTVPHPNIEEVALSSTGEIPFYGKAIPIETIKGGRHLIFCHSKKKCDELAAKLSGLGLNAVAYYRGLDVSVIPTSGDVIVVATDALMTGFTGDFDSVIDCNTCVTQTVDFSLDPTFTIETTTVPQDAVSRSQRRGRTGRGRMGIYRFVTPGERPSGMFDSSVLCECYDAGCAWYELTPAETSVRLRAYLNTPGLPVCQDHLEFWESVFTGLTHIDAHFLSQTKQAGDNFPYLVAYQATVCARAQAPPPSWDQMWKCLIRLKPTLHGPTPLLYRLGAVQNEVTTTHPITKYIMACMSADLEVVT
Assay: fluorescence anisotropy; 100 mM KCl; 25 mM MOPS pH 6.5, 100 mM KCl, 0.1 mM EDTA, 2 mM beta-mercaptoethanol, 0.1 mg/ml BSA, 37 C, 30 min; RNA 2 nM unless stated, folded in 100 mM KCl
Details: protein: recombinant; label: 3'-6FAM; parallel G4 (two-tetrad)
OUTCOME MEASURE: pKd
The quantity pKd is defined as the negative base-10 logarithm of the molar concentration.

// query For the binder shown here, AAGGGAGGGGGGGUCCUGGAGGAA (structured_RNA) [NEGG4] , give the reported pKd.
// result 7.72
